Biological target: T1, PUF-8 WT (FP) (Caenorhabditis elegans, UniProt Q09487 172-535)
T1 sequence: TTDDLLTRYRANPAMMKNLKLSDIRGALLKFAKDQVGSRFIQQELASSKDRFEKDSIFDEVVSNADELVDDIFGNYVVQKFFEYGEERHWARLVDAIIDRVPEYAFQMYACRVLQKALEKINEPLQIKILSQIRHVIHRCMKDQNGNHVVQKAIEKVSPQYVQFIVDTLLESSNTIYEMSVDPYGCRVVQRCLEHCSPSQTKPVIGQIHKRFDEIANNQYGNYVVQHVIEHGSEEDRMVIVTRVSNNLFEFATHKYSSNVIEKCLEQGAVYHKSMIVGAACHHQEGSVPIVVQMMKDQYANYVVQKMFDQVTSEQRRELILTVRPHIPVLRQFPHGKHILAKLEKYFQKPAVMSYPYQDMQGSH
Experiment: fluorescence polarization
pKd values for the binders below.
pKd field: float, defined as -log10 of concentration (mol/L).

Prompt line: Please indicate pKd recorded for UGUAAAUA (ssRNA) [PBE-5A FAM]
Response line: 8.60

Prompt line: Please indicate pKd recorded for UGUAGAUA (ssRNA) [PBE-5G FAM]
Response line: 7.89

Prompt line: Please indicate pKd recorded for UGUACAUA (ssRNA) [PBE-5C FAM]
Response line: 9.08

Prompt line: Please indicate pKd recorded for GGUACAUA (ssRNA) [PBE-1G FAM]
Response line: 6.89

***
Prompt line: Please indicate pKd recorded for UGUAUAUA (ssRNA) [PBE-5U FAM]
Response line: 8.90

Source of measurements: paper PMC8464079
